tested on: P93_24; assay: qHTS profiling for inhibitors of Plasmodium falciparum proliferation (AID 504749); note: nearly all actives have a fitted effect of over 60% in size; conditions: P. falciparum in erythrocytes, SYBR Green DNA, 72 h; series mostly up to 28.7 µM
Inconclusive results are not listed. Activity calls are given as the source filed them. Calls come from the whole dose curve; as a rule, active = well fitted inhibition curve with a large enough effect; inconclusive = small, poorly fitted or top-dose-only effect; inactive = flat fitted curve, though single readings scatter.
Bench note: report the call from true (1) = active, false (0) = inactive

Query string: Could you kindly confirm the outcome this assay logged for CC(=O)NC(Cc1ccccc1)C(=O)O (configuration not stated) ?
Result string: false (0)

Query string: Another: NC(=O)NNc1ccccc1
Result string: false (0)

Query string: Another: CCOc1ccc2ccccc2c1C(=O)N[C@@H]1C(=O)N2[C@@H]1SC(C)(C)[C@@H]2C(=O)O
Result string: false (0)

Query string: Another: O=C(O)COc1nn(Cc2ccccc2)c2ccccc12
Result string: false (0)

Query string: Another: [O-][n+]1cccc(CO)c1
Result string: false (0)

Query string: Another: CSc1ccc2c(c1)C(N1CCN(C)CC1)Cc1ccccc1S2 (configuration not stated)
Result string: true (1)

Query string: Another: COc1ccc(S(=O)(=O)Nc2nnc(CC(C)C)s2)cc1
Result string: false (0)

Query string: Another: O=C1O[C@H]([C@@H](O)CO)C(O)=C1O
Result string: false (0)

Query string: Another: CNC(=O)Oc1ccc2c(c1)[C@]1(C)CCN(C)[C@@H]1N2C
Result string: true (1)

Query string: Another: O=C(O)[C@@H]1CSCN1
Result string: false (0)

Query string: Another: O=c1[nH]c(=O)c2[nH]c(=O)[nH]c2[nH]1
Result string: false (0)

Query string: Another: O=C1NS(=O)(=O)c2ccccc21
Result string: false (0)

Query string: Another: Nc1nc2c(ncn2CCC(CO)CO)c(=O)[nH]1
Result string: false (0)

Query string: Another: CC1(C)OC(=O)NC1=O
Result string: false (0)

Query string: Another: O=c1cc(CO)occ1O
Result string: false (0)

Query string: Another: CCCc1c(OCCCCc2nn[nH]n2)ccc(C(C)=O)c1O
Result string: false (0)

Query string: Another: CCOc1nc2cccc(C(=O)O)c2n1Cc1ccc(-c2ccccc2-c2nn[nH]n2)cc1
Result string: false (0)

Query string: Another: CCCCN(CCCC)CC(O)c1cc(Cl)cc2c1-c1ccc(Cl)cc1/C2=C/c1ccc(Cl)cc1 (configuration not stated)
Result string: true (1)

Query string: Another: [Cl][In]([Cl])[Cl]
Result string: true (1)

Query string: Another: CCC(=O)c1ccc(O)cc1
Result string: false (0)

Query string: Another: NC(=O)N/N=C/c1ccc([N+](=O)[O-])o1
Result string: true (1)

Query string: Another: COc1ccccc1O
Result string: false (0)

Query string: Another: COc1ccc2[nH]c(S(=O)Cc3ncc(C)c(OC)c3C)nc2n1 (configuration not stated)
Result string: true (1)

Query string: Another: C[C@H](N)[C@H](O)c1cccc(O)c1
Result string: false (0)

Query string: Another: CCCCN(CCCC)CCCOC(=O)c1ccc(N)cc1
Result string: false (0)

Query string: Another: O=C1NC(=O)[C@@]2(CCOc3ccc(F)cc32)N1
Result string: false (0)

Query string: Another: Oc1ccc(C(O)CNCCCCCCNCC(O)c2ccc(O)c(O)c2)cc1O (configuration not stated)
Result string: true (1)
